# pKi per entry for Mu-type opioid receptor (Homo sapiens, UniProt P35372)
Note on pKi: it is the negative log10 of concentration, concentration in mol/L.

Test system Mu-type opioid receptor (Homo sapiens, UniProt P35372); read-out pKi; what value for Cc1ccc2c(c1)[C@]1(CN2)C[C@H]2CC[C@@H](C1)N2C(c1ccccc1Cl)c1ccccc1Cl ?
6.00

Now the same for Clc1ccccc1C(c1ccccc1Cl)N1[C@@H]2CC[C@H]1C[C@](CN1CCCC1)(c1ccccc1)C2
5.38

Now the same for CN(C)C[C@@]1(c2ccccn2)C[C@H]2CC[C@@H](C1)N2C(c1ccccc1Cl)c1ccccc1Cl
6.11

Now the same for CC(=O)NC[C@@]1(Cc2ccc(F)cc2)C[C@H]2CC[C@@H](C1)N2C(c1ccccc1Cl)c1ccccc1Cl
6.11

All values here come from ChEMBL document CHEMBL1152183.
